Endpoint: IC50. System: Sodium-dependent dopamine transporter (Homo sapiens, UniProt Q01959). Items follow.
Sequence (Q01959 whole entry): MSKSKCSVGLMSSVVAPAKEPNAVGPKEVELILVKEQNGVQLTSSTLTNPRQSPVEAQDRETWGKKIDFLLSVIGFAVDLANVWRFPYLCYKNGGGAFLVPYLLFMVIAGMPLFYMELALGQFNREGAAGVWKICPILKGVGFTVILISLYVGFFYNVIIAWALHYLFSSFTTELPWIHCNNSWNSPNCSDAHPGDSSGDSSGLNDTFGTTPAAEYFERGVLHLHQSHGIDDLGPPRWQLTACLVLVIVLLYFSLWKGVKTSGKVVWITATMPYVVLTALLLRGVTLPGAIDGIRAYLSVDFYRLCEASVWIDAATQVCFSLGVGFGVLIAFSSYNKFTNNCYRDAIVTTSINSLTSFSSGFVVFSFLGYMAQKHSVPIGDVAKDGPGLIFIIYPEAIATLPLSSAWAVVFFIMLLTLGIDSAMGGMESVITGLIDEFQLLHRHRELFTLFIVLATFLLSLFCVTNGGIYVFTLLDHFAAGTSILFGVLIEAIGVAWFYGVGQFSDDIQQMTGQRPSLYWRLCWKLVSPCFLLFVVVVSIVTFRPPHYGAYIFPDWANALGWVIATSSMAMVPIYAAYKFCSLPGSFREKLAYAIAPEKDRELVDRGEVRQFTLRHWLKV
Report the figure along with its unit, number first.

In the examples that follow, each entry is paired with its recorded IC50.
>>> df
                                   compound  recorded_metric   result
0  O=C1NCC(c2ccc(Cl)cc2)C1c1ccccc1 (stereo not given)             IC50  32.7 nM
1  O=C1NCC(c2ccc(Cl)cc2)C1c1ccc(Cl)cc1 (stereo not given)             IC50   179 nM
2  O=C1NCC(c2ccc(Cl)cc2)C1c1cccc(Cl)c1 (stereo not given)             IC50  36.3 nM
3  O=C1NCC(c2ccc(Cl)cc2)C1c1ccccc1Cl (stereo not given)             IC50  81.5 nM
4  O=C1NCC(c2cccc(Cl)c2)C1c1cccc(Cl)c1 (stereo not given)             IC50  38.7 nM
5  O=C1NCC(c2ccc(Cl)c(Cl)c2)C1c1ccc(Cl)c(Cl)c1 (stereo not given)             IC50   285 nM
6  O=C1NCC(c2ccc(Cl)cc2)C1c1ccc(Cl)c(Cl)c1 (stereo not given)             IC50   281 nM
7  O=C1NCC(c2cccc(Cl)c2)C1c1ccccc1 (stereo not given)             IC50  22.7 nM
8  O=C1NCC(c2ccc(Cl)c(Cl)c2)C1c1cccc(Cl)c1 (stereo not given)             IC50  41.7 nM

Now for the compound whose IC50 we want.
Req: Which IC50 value is on record for O=C1NCC(c2ccccc2Cl)C1c1ccccc1 (stereo not given) ?
Resp: 2140 nM

---

Target: Sodium-dependent serotonin transporter (Homo sapiens)
Conditions: HEK293, at 10 µM
Sequence (P31645 whole entry, looked up): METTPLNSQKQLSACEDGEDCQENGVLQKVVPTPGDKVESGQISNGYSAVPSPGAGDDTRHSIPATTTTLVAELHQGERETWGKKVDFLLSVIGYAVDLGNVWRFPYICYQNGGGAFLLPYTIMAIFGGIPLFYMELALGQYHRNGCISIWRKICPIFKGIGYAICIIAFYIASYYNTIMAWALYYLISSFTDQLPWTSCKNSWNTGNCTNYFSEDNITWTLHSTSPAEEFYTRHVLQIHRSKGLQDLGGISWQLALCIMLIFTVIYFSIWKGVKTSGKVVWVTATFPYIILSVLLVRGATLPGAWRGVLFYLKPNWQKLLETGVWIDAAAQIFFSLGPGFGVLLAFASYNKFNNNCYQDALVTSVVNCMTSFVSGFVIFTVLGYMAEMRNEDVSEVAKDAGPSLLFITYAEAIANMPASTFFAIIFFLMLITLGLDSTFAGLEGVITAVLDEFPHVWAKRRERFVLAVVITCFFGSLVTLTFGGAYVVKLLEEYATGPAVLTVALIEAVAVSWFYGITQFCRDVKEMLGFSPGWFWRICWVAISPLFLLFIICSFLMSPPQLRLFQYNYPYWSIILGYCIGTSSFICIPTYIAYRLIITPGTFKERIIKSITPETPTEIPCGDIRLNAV
Description: Inhibition of human SERT-mediated serotonin uptake expressed in HEK293 cells at 10 uM after 15 mins by fluorescence plate reader analysis
inhibition vs 20%: at or above is Y, below is N.

                                   molecule  answer_label
0  O=C1NCC(c2cccc(Cl)c2)C1c1cccc(Cl)c1 (stereo unspecified)             N

Req: Test whether the molecule O=C1NCC(c2ccc(Cl)c(Cl)c2)C1c1ccc2ccccc2c1 (stereo unspecified) records inhibition of 20% or higher.
Resp: N

Req: State whether the measured inhibition reaches 20%, counting equality as reaching it, for O=C1NCC(c2ccc(Cl)cc2)C1c1ccc(Cl)c(Cl)c1 (stereo unspecified)
Resp: Y

Req: Check if inhibition >= 20% (inclusive). Item: O=C1NCC(c2ccc(Cl)cc2)C1c1ccccc1 (stereo unspecified)
Resp: Y

Req: Check the entry O=C1NCC(c2cccc(Cl)c2)C1c1ccc(Cl)cc1 (stereo unspecified) : does inhibition equal or exceed 20%?
Resp: Y

---

Listed below: inhibition values for each entry.
Target: Sodium-dependent noradrenaline transporter (Homo sapiens, UniProt P23975)
Sequence (P23975 whole entry): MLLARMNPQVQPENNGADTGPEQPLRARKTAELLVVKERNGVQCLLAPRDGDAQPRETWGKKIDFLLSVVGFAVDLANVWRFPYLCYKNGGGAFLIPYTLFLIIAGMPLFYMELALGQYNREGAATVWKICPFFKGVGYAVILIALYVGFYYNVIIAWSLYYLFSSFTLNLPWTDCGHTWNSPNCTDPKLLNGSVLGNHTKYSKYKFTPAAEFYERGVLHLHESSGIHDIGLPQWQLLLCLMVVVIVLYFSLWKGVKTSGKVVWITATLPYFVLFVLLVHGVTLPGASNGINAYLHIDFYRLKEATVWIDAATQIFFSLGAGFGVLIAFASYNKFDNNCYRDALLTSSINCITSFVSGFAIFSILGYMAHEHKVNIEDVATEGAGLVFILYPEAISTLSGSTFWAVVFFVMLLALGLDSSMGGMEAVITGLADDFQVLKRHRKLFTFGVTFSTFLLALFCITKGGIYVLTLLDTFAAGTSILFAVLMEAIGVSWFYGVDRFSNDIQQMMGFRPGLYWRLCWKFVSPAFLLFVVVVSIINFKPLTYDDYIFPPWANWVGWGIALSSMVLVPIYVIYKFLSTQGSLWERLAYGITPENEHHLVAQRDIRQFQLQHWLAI
Assay: Displacement of [3H]Nisoxetine from human recombinant NET over-expressed in dog MDCK cells at 10 uM
Type: cell-based
// return numeric value only (unit: %, not printed)

// below: answered compounds
In [3]: df
Out[3]:
                                   compound  numeric_readout
0  O=C1NCC(c2ccc(Cl)c(Cl)c2)C1c1ccccc1Cl (stereo unspecified)               99
1  O=C1NCC(c2ccccc2Cl)C1c1ccccc1 (stereo unspecified)                5
2  O=C1NCC(c2cccc(Cl)c2)C1c1ccccc1Cl (stereo unspecified)               41
3  O=C1NCC(c2cccc(Cl)c2)C1c1ccc(Cl)c(Cl)c1 (stereo unspecified)               78
4  O=C1NCC(c2ccc(Cl)cc2)C1c1cccc(Cl)c1 (stereo unspecified)               72

Req: Which inhibition is listed for O=C1NCC(c2ccc(Cl)cc2)C1c1ccc(Cl)c(Cl)c1 (stereo unspecified) ?
Resp: 92

---

The molecules listed here are annotated with their inhibition.
Biological target: UniProt:Q01959
Experiment: Displacement of [3H]Win35428 from human recombinant DAT over-expressed in CHOK1 cells at 10 uM
Type: cell-based
Conditions: CHO-K1
Note to self: number, then unit, no commentary.

                                   molecule  result
0  O=C1NCC(c2ccc(Cl)c(Cl)c2)C1c1ccccc1 (centres undefined)     83%

Let us examine a further case.
Req: Form field: reported inhibition of O=C1NCC(c2ccc(Cl)cc2)C1c1ccccc1 (centres undefined)
Resp: 99%

---

Quick reference for inhibition among some molecules
Molecular target: UniProt P31645
Conditions: HEK293, at 10 µM
Write the value in % as a bare number.

In [3]: df
Out[3]:
                                   molecule  numeric_readout
0  O=C1NCC(c2ccccc2Cl)C1c1ccc(Cl)cc1 (configuration not stated)              8.5
1  O=C1NCC(c2ccc(Cl)cc2)C1c1ccc(Cl)cc1 (configuration not stated)             58.1
2  O=C1NCC(c2cccc(Cl)c2)C1c1ccc(Cl)c(Cl)c1 (configuration not stated)             40.9
3  O=C1NCC(c2ccc(Cl)cc2)C1c1ccccc1Cl (configuration not stated)             23.4
4  O=C1NCC(c2ccc(Cl)c(Cl)c2)C1c1ccccc1Cl (configuration not stated)             21.9
5  O=C1NCC(c2ccc(Cl)c(Cl)c2)C1c1ccccc1 (configuration not stated)             29.4

Continue with the molecule presented below.
Req: Bench note: what inhibition did O=C1NCC(c2ccc(Cl)c(Cl)c2)C1c1ccc(Cl)c(Cl)c1 (configuration not stated) show?
Resp: 8.8

---

Target: Sodium-dependent noradrenaline transporter (Homo sapiens)
Experiment: Displacement of [3H]Nisoxetine from human recombinant NET over-expressed in dog MDCK cells at 10 uM
Assay type: cell-based
Measured inhibition, listed per entry.
Put down the number, then write its unit next to it.

// known answers, use as guide
>>> print(df.to_string())
                                   molecule  recorded_metric  result
0  Clc1cccc2c1CC[C@H]1NC[C@H](c3ccccc3)[C@@H]21       inhibition     10%
1  O=C1NCC(c2ccc(Cl)cc2)C1c1ccc(Cl)cc1 (stereo not given)       inhibition     75%
2  O=C1NCC(c2ccc(Cl)cc2)C1c1ccccc1Cl (stereo not given)       inhibition     74%
3  O=C1NCC(c2ccccc2Cl)C1c1ccc(Cl)cc1 (stereo not given)       inhibition     60%
4  O=C1NCC(c2cccc(Cl)c2)C1c1ccccc1 (stereo not given)       inhibition     26%
5  O=C1NCC(c2cccc(Cl)c2)C1c1cccc(Cl)c1 (stereo not given)       inhibition     59%
6  O=C1NCC(c2ccc(Cl)c(Cl)c2)C1c1ccc(Cl)c(Cl)c1 (stereo not given)       inhibition     90%
7  O=C1NCC(c2ccc(Cl)c(Cl)c2)C1c1ccc(Cl)cc1 (stereo not given)       inhibition     83%
8  O=C1NCC(c2ccc(Cl)cc2)C1c1ccc2ccccc2c1 (stereo not given)       inhibition     91%
9  O=C1NCC(c2ccc(Cl)c(Cl)c2)C1c1ccccc1 (stereo not given)       inhibition     87%

Now, please, on to the next molecule.
Req: inhibition of O=C1NCC(c2ccc(Cl)c(Cl)c2)C1c1ccc2ccccc2c1 (stereo not given) on Sodium-dependent noradrenaline transporter (Homo sapiens)?
Resp: 94%

---

# maps each entry to its pIC50
Target: Sodium-dependent serotonin transporter (Homo sapiens, UniProt P31645)
Experiment: biochemical
Sequence (P31645 whole entry): as the sequence (P31645 whole entry, looked up) above
// field semantics: pIC50 = negative decimal log of concentration (mol/L)

>>> print(df.to_string())
                                   compound  recorded_metric  numeric_readout
0  O=C1NCC(c2ccc(Cl)c(Cl)c2)C1c1ccc2ccccc2c1 (stereo not given)            pIC50             6.02
1  O=C1NCC(c2cccc(Cl)c2)C1c1ccc(Cl)c(Cl)c1 (stereo not given)            pIC50             5.43
2  O=C1NCC(c2ccc(Cl)cc2)C1c1ccc(Cl)cc1 (stereo not given)            pIC50             7.00

Req: Value lookup for pIC50; key = O=C1NCC(c2ccc(Cl)cc2)C1c1ccc2ccccc2c1 (stereo not given)
Resp: 5.19

Req: # query: pIC50 of entry O=C1NCC(c2ccc(Cl)c(Cl)c2)C1c1ccc(Cl)cc1 (stereo not given)
Resp: 7.07

---

Known inhibition of a selection of compounds
Molecular target: Sodium-dependent dopamine transporter (Homo sapiens)
Experiment: Displacement of [3H]Win35428 from human recombinant DAT over-expressed in CHOK1 cells at 10 uM
Format: cell-based
Details: CHO-K1

In the examples that follow, each entry is paired with its recorded inhibition.
>>> df
                                   compound  result
0  O=C1NCC(c2ccc(Cl)c(Cl)c2)C1c1ccc(Cl)cc1 (configuration not stated)     76%
1  O=C1NCC(c2ccccc2Cl)C1c1ccc2ccccc2c1 (configuration not stated)     23%
2  O=C1NCC(c2ccc(Cl)cc2)C1c1cccc(Cl)c1 (configuration not stated)     99%
3  O=C1NCC(c2cccc(Cl)c2)C1c1cccc(Cl)c1 (configuration not stated)     98%
4  Clc1ccc2c(c1)[C@@H]1[C@@H](c3ccccc3)CN[C@@H]1CC2      5%

Req: Any idea what its inhibition is? The compound is O=C1NCC(c2cccc(Cl)c2)C1c1ccc(Cl)c(Cl)c1 (configuration not stated)
Resp: 99%

Req: Which inhibition is reported for this compound? O=C1NCC(c2cccc(Cl)c2)C1c1ccc(Cl)cc1 (configuration not stated)
Resp: 95%

Req: Given O=C1NCC(c2ccc(Cl)cc2)C1c1ccc(Cl)cc1 (configuration not stated) , state its recorded inhibition.
Resp: 99%

Req: What inhibition value was documented for this compound, O=C1NCC(c2ccc(Cl)cc2)C1c1ccccc1Cl (configuration not stated) ?
Resp: 97%

Req: Data request, read-out inhibition, for O=C1NCC(c2ccc(Cl)c(Cl)c2)C1c1ccc(Cl)c(Cl)c1 (configuration not stated)
Resp: 85%

Req: Recorded inhibition of Clc1ccc2c(c1)CC[C@H]1NC[C@H](c3ccccc3)[C@@H]21 , please.
Resp: 5%

Req: For the compound shown here, O=C1NCC(c2ccc(Cl)c(Cl)c2)C1c1ccccc1Cl (configuration not stated) , give the reported inhibition.
Resp: 100%
